The entries below are paired with their reported pIC50.
- TARGET ENTITY: human JAK1 kinase domain (JH1) (Homo sapiens, UniProt P23458)
- Construct: recombinantly generated catalytic kinase (also known as JH1) domain of human JAK1, JAK2, JAK3 and TYK2
- Sequence (P23458 875-1153 limits assumed): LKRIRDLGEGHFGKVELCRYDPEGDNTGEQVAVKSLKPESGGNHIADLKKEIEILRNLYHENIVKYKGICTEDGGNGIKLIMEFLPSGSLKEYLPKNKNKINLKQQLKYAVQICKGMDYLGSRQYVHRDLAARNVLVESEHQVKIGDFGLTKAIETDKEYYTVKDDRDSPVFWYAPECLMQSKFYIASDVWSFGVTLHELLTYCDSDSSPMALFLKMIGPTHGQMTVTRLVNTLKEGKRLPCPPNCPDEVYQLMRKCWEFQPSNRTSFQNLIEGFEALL
- MEASUREMENT PROTOCOL: JH1 biochemical assay for JAK1 (ADP-Glo kinase assay, recombinant JH1 catalytic domain, JAK3-342 peptide, 35 μM ATP)
- REPORTED CONDITIONS: JAK1 JH1, ADP-Glo
pIC50: −log10 of the molar value. Counter-ions that a name gives are not always drawn.

COc1cc(-c2cn3nccc3c(N3C[C@@H](C)[C@@](C#N)(C4CC4)C3=O)n2)ccn1 [Example 231, trifluoroacetate] :: < 5.00
C[C@@H]1CN(c2ccnn3cc(-c4cnn(CC5(C#N)CC5)c4)cc23)C(=O)[C@]1(C#N)C1CC1 :: > 7.00
C[C@@H]1CN(c2nc(-c3cnn(C(F)F)c3)cc3ncsc23)C(=O)[C@]1(C#N)C1CC1 :: > 7.00

Shift focus to the following entry.
Request: What value of pIC50 has been recorded for this entry: "C[C@@H]1CN(c2nc(-c3cnn([C@H]4C[C@@](C)(C#N)C4)c3)cn3ncc(F)c23)C(=O)[C@]1(C#N)C1CC1"
Response: > 7.00

====

- TARGET ENTITY: human JAK2 kinase domain (JH1) (Homo sapiens, UniProt O60674)
- Construct: recombinantly generated catalytic kinase (also known as JH1) domain of human JAK1, JAK2, JAK3 and TYK2
- Sequence (O60674 849-1124 limits assumed): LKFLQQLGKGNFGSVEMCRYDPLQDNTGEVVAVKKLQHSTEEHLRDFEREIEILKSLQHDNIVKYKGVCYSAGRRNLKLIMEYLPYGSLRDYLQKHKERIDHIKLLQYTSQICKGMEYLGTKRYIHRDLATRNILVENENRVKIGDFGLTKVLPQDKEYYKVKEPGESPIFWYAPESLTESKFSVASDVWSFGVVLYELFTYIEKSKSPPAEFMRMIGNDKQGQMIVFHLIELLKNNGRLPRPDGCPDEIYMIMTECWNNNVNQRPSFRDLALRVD
- MEASUREMENT PROTOCOL: JH1 biochemical assay for JAK2 (ADP-Glo kinase assay, recombinant JH1 catalytic domain, JAK3-974 peptide, 15 μM ATP)
- REPORTED CONDITIONS: JAK2 JH1, ADP-Glo
OBSERVABLE: IC50

Request: Tell me reported IC50 for "C[C@@H]1CN(c2nc(-c3cnn(C4COC4)c3)cn3nccc23)C(=O)[C@]1(C#N)C1CC1" , tested with human JAK2 kinase domain (JH1) (Homo sapiens, UniProt O60674).
Response: < 100 nM

Request: Item: C[C@@H]1CN(c2nc(-c3cnn([C@H]4CO[C@@H]4C)c3)cn3ncc(F)c23)C(=O)[C@]1(C#N)C1CC1 (relative stereo) Test system: human JAK2 kinase domain (JH1) (Homo sapiens, UniProt O60674) Read-out: IC50 Value: ?
Response: < 100 nM

====

- TARGET ENTITY: Tyk2 kinase activity on STAT4 in NK92 cells (Homo sapiens, UniProt P29597)
- Sequence (P29597 whole entry): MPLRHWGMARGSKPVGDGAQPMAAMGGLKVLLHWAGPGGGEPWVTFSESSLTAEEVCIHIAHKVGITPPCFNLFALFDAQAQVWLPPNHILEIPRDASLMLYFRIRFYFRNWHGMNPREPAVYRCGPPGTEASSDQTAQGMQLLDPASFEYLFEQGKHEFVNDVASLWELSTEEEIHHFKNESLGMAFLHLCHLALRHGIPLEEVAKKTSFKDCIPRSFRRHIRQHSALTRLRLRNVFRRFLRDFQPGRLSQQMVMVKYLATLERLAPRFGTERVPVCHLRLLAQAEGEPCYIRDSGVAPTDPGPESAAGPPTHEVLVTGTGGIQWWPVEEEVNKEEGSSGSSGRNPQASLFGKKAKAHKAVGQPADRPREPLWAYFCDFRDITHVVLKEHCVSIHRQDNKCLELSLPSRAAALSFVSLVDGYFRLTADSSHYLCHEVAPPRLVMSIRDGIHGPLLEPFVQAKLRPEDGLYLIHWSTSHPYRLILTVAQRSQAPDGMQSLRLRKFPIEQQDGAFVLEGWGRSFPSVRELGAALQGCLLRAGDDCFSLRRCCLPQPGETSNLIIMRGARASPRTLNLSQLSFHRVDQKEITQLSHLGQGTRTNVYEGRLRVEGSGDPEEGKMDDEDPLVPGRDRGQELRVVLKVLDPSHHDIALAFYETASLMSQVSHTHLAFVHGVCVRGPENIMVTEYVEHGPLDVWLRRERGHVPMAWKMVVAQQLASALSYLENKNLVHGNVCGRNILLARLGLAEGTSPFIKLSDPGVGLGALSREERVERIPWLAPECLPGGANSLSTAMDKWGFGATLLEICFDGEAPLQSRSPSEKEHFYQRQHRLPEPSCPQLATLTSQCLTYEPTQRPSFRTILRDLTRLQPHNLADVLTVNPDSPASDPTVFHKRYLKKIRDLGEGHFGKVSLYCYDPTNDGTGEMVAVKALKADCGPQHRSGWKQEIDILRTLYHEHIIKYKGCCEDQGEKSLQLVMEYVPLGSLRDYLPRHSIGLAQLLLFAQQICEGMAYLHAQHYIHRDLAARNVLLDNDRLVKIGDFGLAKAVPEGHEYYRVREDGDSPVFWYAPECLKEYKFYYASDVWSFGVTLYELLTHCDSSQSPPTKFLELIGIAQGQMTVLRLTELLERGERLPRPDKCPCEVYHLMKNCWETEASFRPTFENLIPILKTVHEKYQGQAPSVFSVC
- MEASUREMENT PROTOCOL: pSTAT4 cell assay (MSD; NK92 cells, 30 ng/mL IL2 stimulation)
- REPORTED CONDITIONS: 30 ng/mL IL2, 15 minutes
Structures can show the parent of a compound that is named as a salt.
OBSERVABLE: IC50

Consider the worked cases shown below.
Cc1ccn(-c2cc3c(N4C[C@@H](C)[C@@](C#N)(C5CC5)C4=O)ccnn3c2)n1 :: > 100 nM
C[C@@H]1CN(c2ccnn3cc(-c4cnn(C5CC5)c4)cc23)C(=O)[C@]1(C#N)C1CC1 :: 20 to 50 nM
Cc1nn(C)cc1-c1cn2nccc2c(N2C[C@@H](C)[C@@](C#N)(C3CC3)C2=O)n1 :: 50 to 100 nM

Request: Please look up its IC50: "CO[C@H]1C[C@H](n2cc(-c3cc4ncsc4c(N4C[C@@H](C)[C@@](C#N)(C5CC5)C4=O)n3)cn2)C1"
Response: 20 to 50 nM

Request: State the recorded IC50 for this entry: COC[C@@]1(C#N)CCN(c2ccnn3cc(-c4cnn(C)c4)cc23)C1=O (single isomer, unassigned)
Response: > 100 nM

Request: Fill in the blank: the reported IC50 of CNC(=O)c1cc(-c2cn3nccc3c(N3C[C@@H](C)[C@@](C#N)(C4CC4)C3=O)n2)ccn1 [Example 252, trifluoroacetate] is ____.
Response: > 100 nM

Request: # query: IC50 of entry "C[C@@H]1CN(c2ccnn3c(F)c(-c4cnn(C)c4)cc23)C(=O)[C@]1(C#N)C1CC1"
Response: > 100 nM

Request: Record request: IC50 value, item C[C@@H]1CN(c2ccnn3cc(-c4cnn([C@H]5CC5(F)F)c4)cc23)C(=O)[C@]1(C#N)C1CC1 (single isomer, unassigned)
Response: 50 to 100 nM

This collection of values is drawn from patent US20260297085A1.
